Test system: SK-OV-3 ovarian
Method Summary: NCI-60 one-dose screen, 48 h (100 = growth as untreated, 0 = no growth, -100 = all killed)
Experimental Context: 10 µM unless noted
The panel holds about 83,000 compounds, 20% with a hit somewhere; the sample as a whole holds those more often.
Measured Metric: growth (%)

- O=[N+]([O-])c1cc([N+](=O)[O-])c(Cl)cc1Cl: 104
- C[C@]12CC[C@H]3[C@@H](CC4SC(N)=NC45C/C(=N/NC(N)=O)CC[C@]35C)[C@@H]1CCC2=O (stereo partly specified): 101
- CCCCCCC(=O)NC1=C(N2CC2)C(=O)C(NC(=O)CCCCCC)=C(N2CC2)C1=O: 39.8
- CC(=O)O[C@H](C[C@H](C(C)C)N(C)C(=O)[C@@H](NC(=O)[C@H]1CCCCN1C)C(C)C)c1nc(C(=O)NC2CCC(C(=O)O)CC2)cs1 (stereo partly specified): 50.9
- C=COC(=O)CCN1CC1: 101
- CC1=C2[C@@H](CC1)[C@]1(C)O[C@@](C(C)C)(C[C@H]1O)[C@H]2OC(=O)C1CC1c1ccccc1 (stereo partly specified): 90.6
